B1: RHOBTB3 (parent)
chain: QLQSMPSRELASMNLDIVDLLKKA

Variants of: B1
PROCEDURE_SUMMARY: protein stability index of a GFP-peptide fusion (GPS, HEK-293T) (PSI 1-6); higher = more stable;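 also: lentivirally expressed fusions sorted by FACS into six bins by GFP to DsRed ratio, PSI derived from sequencing read proportions per bin multiplied by bin number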
CONDITIONS_USED: c terminus: a fixed tail appended
Assign protein stability index to each entry below.
One number for each entry.

P6A | 3.19
M5Y | 2.01
L10I | 2.95

Lab note: each variant below needs its protein stability index filled in.
1. Q1G
2. K23G
3. E9T
4. L2M
5. L10H
6. S12V
7. V18K

Data returned:
3.51
3.16
3.61
3.83
3.24
3.95
3.21

Please give protein stability index, item by item, for the list that follows.
1. N14I
2. S7D
3. Q1T
4. S7E
5. I17H
6. R8D

Data returned:
2.61
3.9
3.66
3.48
3.94
4.11
